Measured log10(kcat) values are reported for all entries that follow.
System: dengue virus type 4
Procedure summary: Activity of dengue virus 4 recombinant NS3 protease expressed in Escherichia coli C41(DE3) by fluorogenic assay
Non-standard residues stand in square brackets, D forms with d. Residues, ends and D or L forms follow the SMILES beside them. Tyr(3-NO2) = N[C@@H](Cc1ccc(O)c([N+](=O)[O-])c1)C(=O)O; 2Abz = Nc1ccccc1C(=O)O
Parameter value (number): base-10 log of kcat in s⁻¹.

Documented log10(kcat) of C[C@@H](O)[C@H](NC(=O)[C@H](CO)NC(=O)[C@H](CC(=O)O)NC(=O)c1ccccc1N)C(=O)N[C@@H](CS)C(=O)N[C@@H](Cc1ccc(O)c([N+](=O)[O-])c1)C(N)=O (H-[2Abz]DSTC[Tyr(3-NO2)]-NH2) : -1.85

Documented log10(kcat) of NC(=O)[C@H](Cc1ccc(O)c([N+](=O)[O-])c1)NC(=O)[C@H](CS)NC(=O)[C@@H]1CCCN1C(=O)[C@H](CC(=O)O)NC(=O)CNC(=O)c1ccccc1N (H-[2Abz]GDPC[Tyr(3-NO2)]-NH2) : -1.68

Documented log10(kcat) of CC(C)C[C@H](NC(=O)[C@H](Cc1cnc[nH]1)NC(=O)c1ccccc1N)C(=O)N[C@H](C(=O)N[C@@H](Cc1cnc[nH]1)C(=O)N[C@@H](Cc1ccc(O)c([N+](=O)[O-])c1)C(N)=O)C(C)C (H-[2Abz]HLVH[Tyr(3-NO2)]-NH2) : -1.74

Documented log10(kcat) of NC(=O)C[C@H](NC(=O)c1ccccc1N)C(=O)N1CCC[C@H]1C(=O)N[C@@H](CO)C(=O)N[C@@H](Cc1cnc[nH]1)C(=O)N[C@@H](Cc1ccc(O)c([N+](=O)[O-])c1)C(N)=O (H-[2Abz]NPSH[Tyr(3-NO2)]-NH2) : -1.65

Documented log10(kcat) of C[C@@H](O)[C@H](NC(=O)[C@H](Cc1c[nH]c2ccccc12)NC(=O)[C@H](CC(N)=O)NC(=O)c1ccccc1N)C(=O)N[C@@H](CC(N)=O)C(=O)N[C@@H](Cc1ccc(O)c([N+](=O)[O-])c1)C(N)=O (H-[2Abz]NWTN[Tyr(3-NO2)]-NH2) : -1.42

Documented log10(kcat) of NC(=O)[C@H](Cc1ccc(O)c([N+](=O)[O-])c1)NC(=O)[C@H](Cc1cnc[nH]1)NC(=O)[C@@H]1CCCN1C(=O)[C@H](CO)NC(=O)[C@H](Cc1cnc[nH]1)NC(=O)c1ccccc1N (H-[2Abz]HSPH[Tyr(3-NO2)]-NH2) : -2.38

Documented log10(kcat) of CC(C)[C@H](NC(=O)[C@@H](NC(=O)CNC(=O)c1ccccc1N)[C@@H](C)O)C(=O)N[C@@H](CC(N)=O)C(=O)N[C@@H](Cc1ccc(O)c([N+](=O)[O-])c1)C(N)=O (H-[2Abz]GTVN[Tyr(3-NO2)]-NH2) : -1.13

Documented log10(kcat) of CC(C)[C@H](NC(=O)CNC(=O)[C@H](CO)NC(=O)c1ccccc1N)C(=O)N[C@@H](CS)C(=O)N[C@@H](Cc1ccc(O)c([N+](=O)[O-])c1)C(N)=O (H-[2Abz]SGVC[Tyr(3-NO2)]-NH2) : -1.12

Documented log10(kcat) of CC(C)C[C@H](NC(=O)[C@@H](NC(=O)CNC(=O)[C@H](C)NC(=O)c1ccccc1N)C(C)C)C(=O)N[C@@H](Cc1ccc(O)c([N+](=O)[O-])c1)C(N)=O (H-[2Abz]AGVL[Tyr(3-NO2)]-NH2) : -1.26
